- Test system: SNB-19 CNS
- experiment-summary: NCI-60 one-dose screen, 48 h (100 = growth as untreated, 0 = no growth, -100 = all killed)
- experimental-conditions: 10 µM unless noted
This is part of a sample that, as a whole, favours compounds with a hit. Of some 83,000 tested, about 20% had one in any assay.
Quick rule for you: growth at 60% or higher means class 1, lower means class 0.

Given the entry O=C1c2cc(Cl)ccc2S(=O)(=O)c2c(NCCCNCCO)nc3ccccc3c21 , answer whether its growth meets or surpasses 60%.
class 0

Given the entry CN[C@]12CC3(C=CC(=O)C=C3)O[C@@]1(Cc1ccc(OC)cc1)N(C)C(=O)N2 , answer whether its growth meets or surpasses 60%.
class 1

Given the entry COc1ccc(C2=Nc3c/c(=C\c4c(O)[nH]c5ccc(Cl)cc45)ccc3=N2)cc1 , answer whether its growth meets or surpasses 60%.
class 1

Given the entry Cc1ccccc1Cn1cnc2ccc(-c3cc(NC(=O)c4ccc(NC5CCN(C)CC5)cc4)n[nH]3)cc21 , answer whether its growth meets or surpasses 60%.
class 1

Given the entry CC(C)n1cnc2c(=S)nc[nH]c21 , answer whether its growth meets or surpasses 60%.
class 1

Given the entry CCN(CC)CCCN1C(=O)c2c(c(C)c3c(oc4cc(O)ccc43)c2C)C1=O , answer whether its growth meets or surpasses 60%.
class 0

Given the entry COc1ccc(OC)c(C(=O)/C=C/c2cc3c(c(OC)c2OC)OCO3)c1 , answer whether its growth meets or surpasses 60%.
class 1

Given the entry COc1ccc2cc(C(=O)c3coc4ccc(O)cc34)ccc2c1 , answer whether its growth meets or surpasses 60%.
class 1

Given the entry CCCCN1C(=O)/C(=c2\sc3n(c2=O)C2C(NN=3)N(CC)C(=O)N2CC)c2ccccc21 (stereo unspecified) , answer whether its growth meets or surpasses 60%.
class 0

Given the entry CCOC(=O)C(=Cc1cccc(Br)c1)C(=O)OCC , answer whether its growth meets or surpasses 60%.
class 0

Given the entry Cc1ccc(Cl)cc1Nc1nc(C(F)(F)F)ccc1C(=O)N/N=C/c1cccnc1 , answer whether its growth meets or surpasses 60%.
class 0

Given the entry O=C1/C(=C/c2ccc(Cl)c(Cl)c2)CN(C(=O)C(Cl)Cl)C/C1=C\c1ccc(Cl)c(Cl)c1 , answer whether its growth meets or surpasses 60%.
class 0

Given the entry Cc1cccnc1NC(=S)Nc1ncccc1C , answer whether its growth meets or surpasses 60%.
class 1

Given the entry N#Cc1c(-c2ccccc2)cc(-c2ccccc2)n(CCCCCC(=O)Nc2ccccc2N)c1=O , answer whether its growth meets or surpasses 60%.
class 1

Given the entry Cn1cccc1C(=O)C1C(c2cccc([N+](=O)[O-])c2)C2C3CCCCC3CN2C12C(=O)Nc1ccc(Cl)cc12 (stereo unspecified) , answer whether its growth meets or surpasses 60%.
class 0

Given the entry N=C(N)c1ccc(-c2ccc(-c3ccc(F)cc3)o2)o1 , answer whether its growth meets or surpasses 60%.
class 0

Given the entry N#Cc1nn(-c2cc(=O)[nH]c3ccc(Cl)cc23)c(N)c1C#N , answer whether its growth meets or surpasses 60%.
class 1

Given the entry COc1ccc(-c2nc(SCC(C)C)nc(N/N=C\c3ccc(F)cc3)c2C#N)cc1 , answer whether its growth meets or surpasses 60%.
class 1

Given the entry CCCCCCCCn1ccc2cc(NC(=O)CN3CCN(c4nc(C)cc(Cl)n4)CC3)ccc21 , answer whether its growth meets or surpasses 60%.
class 1

Given the entry CN1CCN(c2ccc(NC(=O)c3nc4ccc5[nH]ncc5c4c4c3CCCC4)cc2C(F)(F)F)CC1 , answer whether its growth meets or surpasses 60%.
class 1
